These data points were gathered from PubChem BioAssay (NCI).

Test system: BT-549 breast
EXPERIMENT_DESCRIPTION: NCI tumour cell line growth inhibition, 384-well format; in the data active = GI50 below about 0.43 µM; inactive = the rest
Outcomes: yes (1) = active, no (0) = inactive

{"columns": ["MOLECULE", "ASSIGNED_CATEGORY"],
 "data": [
  ["CC1=C(CO)C2=C(C)C3(CC3)[C@@](C)(O)C(=O)C2=C1", "yes (1)"],
  ["CN(C)C/C=C/C(=O)Nc1cc2c(Nc3ccc(F)c(Cl)c3)ncnc2cc1O[C@H]1CCOC1", "no (0)"],
  ["Cn1c(Nc2ccc(C(F)(F)F)cc2)nc2cc(Oc3ccnc(-c4ncc(C(F)(F)F)[nH]4)c3)ccc21", "yes (1)"],
  ["Nc1ccn(C2OC(CO)C(O)C2O)c(=O)n1 (centres undefined)", "no (0)"]
]}
